Each record here notes measured protein stability index.
B1: RAB40B (parent)
chain: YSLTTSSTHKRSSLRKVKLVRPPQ

# Variants of: B1
# assay_details: protein stability index of a GFP-peptide fusion (GPS, HEK-293T) (PSI 1-6); higher = more stable;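 further: lentivirally expressed fusions sorted by FACS into six bins by GFP to DsRed ratio, PSI derived from sequencing read proportions per bin multiplied by bin number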
# condition_label: c terminus: a fixed tail appended
Form field (numeric): enter value without unit.

{"variant_annotation": "S2K", "observed_property": "protein stability index", "data_value": 2.95}
{"variant_annotation": "L3R", "observed_property": "protein stability index", "data_value": 3.34}
{"variant_annotation": "V20G", "observed_property": "protein stability index", "data_value": 2.71}

[in] Return value of protein stability index for input K16D , no commentary.
[out] 3.59

[in] Return value of protein stability index for input S13Y , no commentary.
[out] 2.53

Data origin, for the record: the supplement of paper PMC10567573
